# subject_of_test: cdk4/cyclinD (Homo sapiens, UniProt P11802)
# Sequence (P11802 whole entry, species assumed): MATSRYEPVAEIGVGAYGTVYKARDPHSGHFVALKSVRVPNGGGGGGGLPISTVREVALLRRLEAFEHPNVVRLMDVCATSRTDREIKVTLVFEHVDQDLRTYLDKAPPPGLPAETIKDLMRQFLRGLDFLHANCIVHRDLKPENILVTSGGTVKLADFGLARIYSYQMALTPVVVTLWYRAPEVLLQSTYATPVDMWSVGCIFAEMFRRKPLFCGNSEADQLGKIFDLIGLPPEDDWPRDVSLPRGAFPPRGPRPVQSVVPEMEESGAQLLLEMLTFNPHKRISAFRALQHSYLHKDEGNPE
# Sequence (P24385 whole entry partner, species assumed): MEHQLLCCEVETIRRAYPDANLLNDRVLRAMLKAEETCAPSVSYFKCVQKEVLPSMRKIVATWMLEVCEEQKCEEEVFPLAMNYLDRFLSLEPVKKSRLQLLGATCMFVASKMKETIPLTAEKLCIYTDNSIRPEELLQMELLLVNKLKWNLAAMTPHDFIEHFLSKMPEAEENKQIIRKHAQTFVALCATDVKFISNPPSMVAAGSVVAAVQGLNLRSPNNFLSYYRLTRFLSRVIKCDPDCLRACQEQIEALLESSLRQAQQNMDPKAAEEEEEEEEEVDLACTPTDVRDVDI
# measurement_protocol: Cyclin Dependent Kinase 4 (cdk-4) Assay, 32P incorporation, filter plate
# settings: retinoblastoma substrate, 25 μM ATP, 25° C., 15 minutes; read-out: Inhibition of Cdks: IC50 Cdk4D
Reported values of IC50 for individual entries
quantity_measured: IC50

>>> value_reported("CCNC(=O)Nc1cc(C)c2cnc(Nc3ccc(N4CCNCC4)cc3)nc2n1 [Compound 28]")
"> 5000 nM"
>>> value_reported("CC(C)(C)NC(=O)Nc1ccc2cnc(Nc3ccc(N4CCN(C(=O)OC(C)(C)C)CC4)cc3)nc2n1 [Compound 79]")
"> 5000 nM"
>>> value_reported("O=C(Nc1ccc2cnc(Nc3ccc(N4CCNCC4)cc3)nc2n1)NC1CCCC1 [Compound 51]")
"4 nM"
>>> value_reported("CCc1cc2cnc(Nc3ccc(N4C[C@@H](C)N[C@@H](C)C4)cc3)nc2nc1NC(=O)NC(C)(C)C [Compound 121]")
"92 nM"
>>> value_reported("CC(=O)N1CCN(c2ccc(Nc3ncc4ccc(NC(=O)NCCCN5CCOCC5)nc4n3)cc2)CC1 [Compound 103]")
"> 5000 nM"
>>> value_reported("NCCNC(=O)Nc1ccc2cnc(Nc3ccc(F)cc3)nc2n1 [Compound 98]")
"1050 nM"
>>> value_reported("O=C(Nc1nc2nc(Nc3ccc(N4CCNCC4)cc3)ncc2cc1Br)NC1CCCCC1 [Compound 55]")
"300 nM"
>>> value_reported("CNC(=O)Nc1cc(C)c2cnc(Nc3ccc(N4CCNCC4)cc3)nc2n1 [Compound 64]")
"> 5000 nM"
>>> value_reported("Cc1cc(Nc2ncc3ccc(NC(=O)Nc4ccc(Cl)cc4)nc3n2)ccc1F [Compound 47]")
"> 5000 nM"
>>> value_reported("Cc1cc(NC(=O)NC(C)(C)C)nc2nc(Nc3ccc(N4CCNCC4)cc3)ncc12 [Compound 4]")
"1500 nM"
>>> value_reported("Cc1cc(NC(=O)NC2CCCCC2)nc2nc(Nc3ccc(N4CCNCC4)cc3)ncc12 [Compound 12]")
"2100 nM"
>>> value_reported("CC(C)(C)NC(=O)Nc1ccc2cnc(Nc3ccc(N4CCNCC4)cc3)nc2n1 [Compound 1]")
"6 nM"
>>> value_reported("Cc1cc(NS(=O)(=O)N(C)C)nc2nc(Nc3ccc(N4CCNCC4)cc3)ncc12 [Compound 71]")
"> 5000 nM"
>>> value_reported("O=C(Nc1ccc2cnc(Nc3ccc(N4CCNCC4)cc3)nc2n1)N1CCNCC1 [Compound 87]")
"> 5000 nM"
>>> value_reported("O=C(Nc1ccc2cnc(Nc3ccc(N4CCNCC4)cc3)nc2n1)N1CCOCC1 [Compound 85]")
"> 5000 nM"
>>> value_reported("Cc1cc(Nc2ncc3ccc(NC(=O)NC(C)(C)C)nc3n2)ccc1F [Compound 46]")
"> 5000 nM"
>>> value_reported("O=C(Nc1nc2nc(Nc3ccc(N4CCNCC4)cc3)ncc2cc1F)NC1CCCCC1 [Compound 11]")
"11 nM"
>>> value_reported("CC1(C)CN(c2ccc(Nc3ncc4ccc(NC(=O)NC5CCCCC5)nc4n3)cc2)CCN1 [Compound 115]")
"7 nM"
>>> value_reported("CC(=O)N1CCN(c2ccc(Nc3ncc4ccc(NC(=O)NC(C)(C)C)nc4n3)cc2)CC1 [Compound 5]")
"37 nM"
>>> value_reported("CC(C)(C)NC(=O)Nc1ccc2cnc(Nc3ccccc3)nc2n1 [Compound 45]")
"45 nM"
>>> value_reported("C[C@@H]1CN(c2ccc(Nc3ncc4cc(F)c(NC(=O)NC(C)(C)C)nc4n3)cc2)C[C@H](C)N1 [Compound 102]")
"165 nM"
>>> value_reported("CC(C)(C)OC(=O)N1CCN(c2ccc(Nc3ncc4ccc(NC(=O)NC5CCCCC5)nc4n3)cc2)CC1 [Compound 80]")
"460 nM"
>>> value_reported("CC(C)C[C@@H](CO)NC(=O)Nc1ccc2cnc(Nc3ccc(N4CCNCC4)cc3)nc2n1 [Compound 83]")
"55 nM"
>>> value_reported("CCCN(CCC)C(=O)Nc1ccc2cnc(Nc3ccc(N4CCNCC4)cc3)nc2n1 [Compound 86]")
"> 5000 nM"
>>> value_reported("Cc1cc2cnc(Nc3ccc(N4C[C@@H](C)N[C@@H](C)C4)cc3)nc2nc1NC(=O)NC1CC1 [Compound 120]")
"1900 nM"
>>> value_reported("C[C@@H]1CN(c2ccc(Nc3ncc4cc(Br)c(NC(=O)NC(C)(C)C)nc4n3)cc2)C[C@H](C)N1 [Compound 94]")
"101 nM"
>>> value_reported("O=C(NCCCO)Nc1ccc2cnc(Nc3ccc(N4CCNCC4)cc3)nc2n1 [Compound 81]")
"500 nM"
>>> value_reported("CN1CCN(C(=O)Nc2ccc3cnc(Nc4ccc(N5CCNCC5)cc4)nc3n2)CC1 [Compound 84]")
"> 5000 nM"
>>> value_reported("Cc1c(F)c(NC(=O)NC(C)C)nc2nc(Nc3ccc(N4CCNCC4)cc3)ncc12 [Compound 114]")
"> 5000 nM"
>>> value_reported("O=C(NCCCN1CCOCC1)Nc1ccc2cnc(Nc3ccc(F)cc3)nc2n1 [Compound 96]")
"> 5000 nM"
>>> value_reported("CCOC(=O)c1cc2cnc(Nc3ccc(N4CCNCC4)cc3)nc2nc1NC(=O)NC(C)(C)C [Compound 113]")
"3000 nM"

---

# subject_of_test: cdk1/cyclinB (Homo sapiens, UniProt P06493)
# Sequence (P06493 whole entry, species assumed): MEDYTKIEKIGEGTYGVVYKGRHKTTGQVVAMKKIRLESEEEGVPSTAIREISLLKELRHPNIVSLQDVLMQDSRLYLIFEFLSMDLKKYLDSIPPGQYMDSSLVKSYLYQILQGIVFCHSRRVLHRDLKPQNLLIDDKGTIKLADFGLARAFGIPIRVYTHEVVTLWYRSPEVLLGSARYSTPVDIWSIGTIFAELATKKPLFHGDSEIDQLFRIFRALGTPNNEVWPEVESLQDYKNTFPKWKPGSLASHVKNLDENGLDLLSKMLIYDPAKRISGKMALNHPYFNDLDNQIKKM
# Sequence (P14635 whole entry partner, species assumed): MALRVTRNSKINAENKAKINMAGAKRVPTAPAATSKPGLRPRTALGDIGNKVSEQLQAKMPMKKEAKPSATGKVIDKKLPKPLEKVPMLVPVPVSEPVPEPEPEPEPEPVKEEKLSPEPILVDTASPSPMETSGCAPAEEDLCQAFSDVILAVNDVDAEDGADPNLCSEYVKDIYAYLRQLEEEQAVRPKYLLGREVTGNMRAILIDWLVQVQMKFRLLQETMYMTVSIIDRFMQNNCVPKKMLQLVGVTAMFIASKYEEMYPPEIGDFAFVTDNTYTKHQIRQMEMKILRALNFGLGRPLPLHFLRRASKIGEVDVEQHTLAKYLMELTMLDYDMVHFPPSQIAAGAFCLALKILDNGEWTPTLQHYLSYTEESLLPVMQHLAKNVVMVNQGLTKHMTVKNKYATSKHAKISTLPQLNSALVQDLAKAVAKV
# measurement_protocol: Cyclin dependent kinase 1 assay (cdk1/cyclinB), 32P incorporation, filter plate
# settings: retinoblastoma substrate, 12 mM ATP, 25° C., 15 minutes; read-out: Inhibition of Cdks: IC50 Cdk1/B
Entries annotated with measured IC50
quantity_measured: IC50 (µM)

>>> value_reported("CC(C)(C)OC(=O)N1CCN(c2ccc(Nc3ncc4ccc(NC(=O)NC5CCCCC5)nc4n3)cc2)CC1")
0.461
>>> value_reported("O=C(Nc1ccc2cnc(Nc3ccc(N4CCNCC4)cc3)nc2n1)NC1CCCC1")
0.053
>>> value_reported("O=C(NCCO)Nc1ccc2cnc(Nc3ccc(F)cc3)nc2n1")
0.862
>>> value_reported("CC1(C)CN(c2ccc(Nc3ncc4ccc(NC(=O)NC5CCCCC5)nc4n3)cc2)CCN1")
0.094

---

# subject_of_test: FGF-1 (flg) receptor tyrosine kinase (FGFr) (Homo sapiens)
# Construct: amplify a fragment of DNA that codes for the intracellular tyrosine kinase domain; made in house; host or cells: SF9 insect cells (baculovirus); crude cell lysate used
# Sequence (P11362 478-767 limits assumed): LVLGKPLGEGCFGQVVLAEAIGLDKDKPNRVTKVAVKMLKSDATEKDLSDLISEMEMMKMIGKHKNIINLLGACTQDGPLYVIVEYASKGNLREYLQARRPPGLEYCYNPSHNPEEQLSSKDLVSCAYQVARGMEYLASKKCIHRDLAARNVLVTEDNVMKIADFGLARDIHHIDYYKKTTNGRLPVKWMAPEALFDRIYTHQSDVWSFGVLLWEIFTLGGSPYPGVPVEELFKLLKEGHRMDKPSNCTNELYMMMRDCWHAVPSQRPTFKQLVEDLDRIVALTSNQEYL
# measurement_protocol: FGF Receptor Tyrosine Kinase Assay
# Assay type: biochemical
# settings: at 50 μM compound; glutamate-tyrosine co-polymer substrate; read-out: Inhibition of Tyrosine Kinases: % Inhibition at 50 μM FGFr
quantity_measured: inhibition at 50 µM

>>> value_reported("O=C(Nc1ccc2cnc(Nc3ccc(N4CCNCC4)cc3)nc2n1)NC1CCCCC1 [Compound 9]")
"89.8%"
>>> value_reported("CC(C)(C)NC(=O)Nc1ccc2cnc(Nc3ccc(N4CCNCC4)cc3)nc2n1 [Compound 1]")
"93.7%"
>>> value_reported("CC(C)(C)NC(=O)Nc1ccc2cnc(Nc3ccccc3)nc2n1 [Compound 45]")
"67.4%"
>>> value_reported("Cc1cc(Nc2ncc3ccc(NC(=O)NC(C)(C)C)nc3n2)ccc1F [Compound 46]")
"19.5%"
>>> value_reported("CC(C)(C)OC(=O)N1CCN(c2ccc(Nc3ncc4ccc(NC(=O)NC5CCCCC5)nc4n3)cc2)CC1 [Compound 80]")
"18.6%"
>>> value_reported("Cc1cc(Nc2ncc3ccc(NC(=O)Nc4ccc(Cl)cc4)nc3n2)ccc1F [Compound 47]")
"10.5%"

---

# subject_of_test: cdk2/cyclinE (Homo sapiens)
# measurement_protocol: Cyclin dependent kinase 2 assay (cdk2/cyclinE), 32P incorporation, filter plate
# settings: retinoblastoma substrate, 12 mM ATP, 25° C., 15 minutes; read-out: Inhibition of Cdks: IC50 Cdk2/E
quantity_measured: IC50 (nM)

>>> value_reported("CN(C(=O)NC1CCCCC1)c1ccc2cnc(Nc3ccc(N4CCNCC4)cc3)nc2n1 [Compound 70]")
530
>>> value_reported("Cc1cc(Nc2ncc3ccc(NC(=O)NC(C)(C)C)nc3n2)ccc1F [Compound 46]")
300
>>> value_reported("CC(C)(C)NC(=O)Nc1ccc2cnc(Nc3ccccc3)nc2n1 [Compound 45]")
110
>>> value_reported("CC(C)(C)NC(=O)Nc1ccc2cnc(Nc3ccc(N4CCNCC4)cc3)nc2n1 [Compound 1]")
130

---

# subject_of_test: cdk4/cyclinD (Homo sapiens, UniProt P11802)
# measurement_protocol: Cyclin Dependent Kinase 4 (cdk-4) Assay, 32P incorporation, filter plate
# settings: retinoblastoma substrate, 25 μM ATP, 25° C., 15 minutes; read-out: Inhibition of Cdks: IC50 Cdk4D
Mark each entry True if its IC50 sits below 0.03 µM, and False for all others.

>>> class_label("CC(C)[C@H](CO)NC(=O)Nc1ccc2cnc(Nc3ccc(N4CCNCC4)cc3)nc2n1 [Compound 88]")
"True"
>>> class_label("CCCNC(=O)Nc1cc(C)c2cnc(Nc3ccc(N4CCNCC4)cc3)nc2n1 [Compound 111]")
"False"
>>> class_label("CCN(C(=O)NC1CCCCC1)c1ccc2cnc(Nc3ccc(N4CCNCC4)cc3)nc2n1 [Compound 107]")
"True"
>>> class_label("Cc1cc2cnc(Nc3ccc(N4CCNCC4)cc3)nc2nc1NC(=O)NC(C)(C)C [Compound 118]")
"False"
>>> class_label("O=C(Nc1ccc2cnc(Nc3ccc(N4CCNCC4)cc3)nc2n1)NC1CCCCC1 [Compound 9]")
"True"
>>> class_label("Cc1cc2cnc(Nc3ccc(N4C[C@@H](C)N[C@@H](C)C4)cc3)nc2nc1NC(=O)NC1CCCCC1 [Compound 116]")
"False"
>>> class_label("C[C@@H]1CN(c2ccc(Nc3ncc4cc(F)c(NC(=O)NC5CCCCC5)nc4n3)cc2)C[C@H](C)N1 [Compound 52]")
"True"
>>> class_label("CC(C)NC(=O)Nc1ccc2cnc(Nc3ccc(N4CCNCC4)cc3)nc2n1 [Compound 48]")
"True"
